Numbers sourced from paper PMC3896865.

Target: EGR1 DB_WT (Zif268 DNA-binding domain) (human, UniProt P18146 331-430)
Assay: ITC
pKd: −log10 of the molar value.

binder: ZRE duplex (15-mer) (dsDNA) DNA 1: ATAGCGTGGGCGTTT DNA 2: AAACGCCCACGCTAT
pKd: 6.49
